Assay: gradient 5% acetonitrile 3 min, to 50% in 2 min, to 85% in 15 min, held 3 min, 100 µL/min
Details: column: Zorbax Extend-C18 2.1 x 50 mm; eluents: water / acetonitrile, 0.1% formic acid
Measurement kind: RP-LC retention time (s)
The reply should contain only the number, in s.

Study these solved cases before continuing.
Supply RP-LC retention time value. Item: `CC(=O)Oc1ccc2c(=O)c(Oc3ccc([N+](=O)[O-])cc3)c(C)oc2c1`
854

# return recorded RP-LC retention time for input `C=CCN(CC=C)C(=O)Cn1c(C)c(Cc2ccccc2)c(=O)n2nc(-c3ccccc3)nc12`
1040

Please report the measured RP-LC retention time for C=CCNC(=O)C1CCCN(c2ncnc3c2oc2ccccc23)C1 (stereo not given)
674

# return recorded RP-LC retention time for input `O=C1CCCC(=O)N1CCS(=O)(=O)NCc1cccc(Oc2ccc(F)cc2)c1`
840

Kindly indicate its recorded RP-LC retention time. Item: CN(C)c1cccc(-c2nc(C3CC(=O)N(c4ccc(Cl)cc4)C3)no2)c1 (stereo not given)
1110

Output RP-LC retention time of `CC1=C(c2ccc(C)cc2)S(=O)(=O)N=C1N1CCC(NC(=O)c2ccoc2)CC1`
805

Further cases:
Supply recorded RP-LC retention time for `CS(=O)(=O)N1CCCc2cc(C(=O)NCc3ccc4c(c3)OCO4)ccc21` here.
779

Provide only the value of recorded RP-LC retention time for CC1CCCCN1CCN(CCC(=O)N1CCNCC1)C(=O)c1ccc(C(F)(F)F)cc1 (stereo not given)
569

Query RP-LC retention time for `Cc1nn(-c2ccc(F)cc2)c(C)c1S(=O)(=O)N1CCC(C(=O)N2CCCC2)CC1`
790

Read the entry `O=C(c1ccc2nsnc2c1)N1CCN(c2ccc(F)cc2)CC1` and write its reported RP-LC retention time.
811

# return recorded RP-LC retention time for input CCN(CC)C(=O)c1cc2c(s1)CCC(C(=O)NCc1ccncc1)C2 (stereo not given)
557

Indicate its recorded RP-LC retention time; the compound in question is `CCN1CCn2cc(S(=O)(=O)Nc3ccc(OC)c(Cl)c3)cc2C1=O`
730

====

Test: gradient 5% acetonitrile 3 min, to 50% in 2 min, to 85% in 15 min, held 3 min, 100 µL/min
Conditions: column: Zorbax Extend-C18 2.1 x 50 mm; eluents: water / acetonitrile, 0.1% formic acid
RP-LC retention time of 700 s or higher: Yes. Under 700 s: No.

For this compound, is measured RP-LC retention time 700 s or higher? `CC(C)CCNC(=O)Cn1ccn2nc(-c3ccccc3)c(CO)c2c1=O`
Yes

Identify whether the reported RP-LC retention time of the following compound is 700 s or greater: CCc1ccccc1N1C(=O)CN(S(C)(=O)=O)CC1(C)C(=O)NCc1ccc(Cl)cc1 (centres undefined)
Yes

# check: RP-LC retention time of `Cc1cc(S(=O)(=O)[C@H]2CS(=O)(=O)C[C@@H]2N2CCN(c3ccccc3F)CC2)ccc1F` is greater than or equal to 700 s
Yes

Does the compound `CC(C)Cn1cc(S(=O)(=O)Nc2cccc(C#N)c2)c2cccnc21` have recorded RP-LC retention time that is 700 s or more?
Yes

---
For this compound, is measured RP-LC retention time 700 s or higher? `Cc1noc2ncnc(N3CCN(c4ccccn4)CC3)c12`
No

Does `COc1ccc(Cl)cc1C(=O)Nc1ccc2c(c1)C(=O)NCCO2` have a reported RP-LC retention time of at least 700 s?
Yes

Is RP-LC retention time for `O=C(COc1ccccc1)N1CCN(c2nc(CN3CCOCC3)cs2)CC1` at or above 700 s?
No

Is it the case that CC(C)n1c(C2CCN(C(=O)c3cccc(N(C)C)c3)C2)nc2ccncc21 (centres undefined) has RP-LC retention time reaching or exceeding 700 s?
No

====

Readings of RP-LC retention time for the listed compounds
Experiment: gradient 5% acetonitrile 3 min, to 50% in 2 min, to 85% in 15 min, held 3 min, 100 µL/min
Conditions: column: Zorbax Extend-C18 2.1 x 50 mm; eluents: water / acetonitrile, 0.1% formic acid
# output: bare number, implied unit s

Known results for compounds:
Input `O=C(CN1C(=O)N/C(=C\c2ccc(Cl)cc2)C1=O)Nc1ccc(Cl)cc1` , output reported RP-LC retention time.
899

Return RP-LC retention time (reported value) for this compound: `CCc1ccc(-c2cn3cc(C(=O)N(CC)CC)ccc3n2)cc1`
675

Return the recorded RP-LC retention time value; entry: `O=C(Cn1ccc2c(SCc3ccccc3)nccc21)N1CCN(c2ccccc2)CC1`
768

Give RP-LC retention time for the following compound: CCC(C)NC(=O)c1cn(-c2ncccc2-c2nc(-c3ccccc3)no2)cn1 (centres undefined)
858

Annotate the compound `CCn1c(=O)c(=O)n(CC(=O)NCc2ccco2)c2cccnc21` with its measured RP-LC retention time.
652

Continuing:
Give the reported value of RP-LC retention time for this record: `CC1=C(c2ccc(Cl)cc2)S(=O)(=O)N=C1N1CCCN(C(=O)NC(C)C)CC1`
780

State its RP-LC retention time for this compound: `Cc1ccc(-c2cn3cccnc3n2)cc1NC(=O)CC1CCCCC1`
720

Look up and report measured RP-LC retention time for this entry: Cc1ccc(NC(=O)NCC(c2cccnc2)c2cn(C)c3ccccc23)c(Cl)c1 (centres undefined)
768

Answer with reported RP-LC retention time of `Cn1cc(CCNS(=O)(=O)c2ccccc2C(F)(F)F)c2cccnc21`
764

====

Assay: gradient 5% acetonitrile 3 min, to 50% in 2 min, to 85% in 15 min, held 3 min, 100 µL/min
Settings: column: Zorbax Extend-C18 2.1 x 50 mm; eluents: water / acetonitrile, 0.1% formic acid
Binary call on RP-LC retention time: label 1 from 600 s upward, label 0 beneath that.

I'd appreciate it if you could say whether `OC1(c2ccc(Cl)cc2)CCN(Cc2c[nH]c3ccccc23)CC1` has RP-LC retention time at least equal to 600 s.
label 1

# bool: RP-LC retention time of O=C(NCc1cccs1)c1ccnc(N2CCNC(c3ccccc3)C2)c1 (stereo unspecified) >= 600 s
label 1

Exam item: decide whether the reported RP-LC retention time for `O=C(NC1CC1)C1CCN(C(=O)c2cc(-c3ccncc3)n[nH]2)CC1` is at least 600 s.
label 0

For this compound, is measured RP-LC retention time 600 s or higher? CCNC(=O)C1Cn2cccc2C(=O)N1C (stereo unspecified)
label 0

Could you verify whether the entry O=C(C1CC(=O)N(C2CCCCC2)C1)N1CCCCCC1 (stereo unspecified) shows RP-LC retention time of no less than 600 s?
label 1

Let us examine a further case.
Check the entry `CCc1cc(=O)n(CC(=O)Nc2cc(F)ccc2C)c(N2CCOCC2)n1` : does RP-LC retention time equal or exceed 600 s?
label 1

====

This listing pairs molecules with measured RP-LC retention time.
Assay: gradient 5% acetonitrile 3 min, to 50% in 2 min, to 85% in 15 min, held 3 min, 100 µL/min
Conditions: column: Zorbax Extend-C18 2.1 x 50 mm; eluents: water / acetonitrile, 0.1% formic acid
Report as a plain number; the unit s is understood.

Observe how each entry below is paired with its result.
Indicate the recorded RP-LC retention time value for this molecule: `Cc1cc(C)cc(NC(=O)N2CCN(c3ccc(=O)n(-c4ccccc4)n3)CC2)c1`
832

Annotate the molecule `O=C(Cc1ccc(Cl)cc1)NCc1nc(-c2cccc(-c3csc(C4CC4)n3)c2)no1` with its measured RP-LC retention time.
1120

Give RP-LC retention time for the following molecule: `CCN(CC)c1nc2cc(C(=O)OC)ccc2c(=O)n1-c1cccc(OC)c1`
1110

Provide RP-LC retention time value for the following molecule: `Cc1sc(-c2cc(C(F)(F)F)on2)cc1S(=O)(=O)Nc1ccc2c(c1)OCCO2`
1070

Identify measured RP-LC retention time associated with `CCCn1cc(CCNS(=O)(=O)c2cccc(C(F)(F)F)c2)c2cccnc21`
904

Read off the recorded RP-LC retention time for `O=C(Nc1ccccc1C(F)(F)F)c1ccc(N2CCCC2)nn1`
868

Given the molecule `CCn1cc(C(=O)Nc2ccccc2C)c2cccnc21` , write its reported RP-LC retention time.
791

Please supply the value of reported RP-LC retention time for the item CCS(=O)(=O)N1CC(=O)N(c2cc(C)cc(C)c2)C(C)(C(=O)NCc2ccccc2)C1 (configuration not stated)
868

More entries:
Please report the measured RP-LC retention time for O=C(c1ccc(OCC2CCCN(C(=O)c3ccc(F)c(F)c3)C2)cc1)N1CCOCC1 (configuration not stated)
801

Please report RP-LC retention time for the following molecule: `Cc1ccc(-c2nnc(-c3ccccc3Cl)o2)cc1S(=O)(=O)N1CCOCC1`
969

State its RP-LC retention time: `Cc1cccc(C)c1NC(=O)Cn1nc(N2CCOCC2)c2ccccc2c1=O`
744

Dear colleague, please send me the reported RP-LC retention time for `O=c1n(Cc2cccc(Cl)c2)nc2c(S(=O)(=O)N3CCc4ccccc4C3)cccn12` when you can.
1010
